# system.under.test: GmAOX1 (Glycine max, UniProt Q07185)
# Construct: mature form, predicted mitochondrial target peptide removed, new start Met (forward primer encodes M-ESTLALS), pET22b(+), E. coli BHH8 inverted membrane vesicles; apparent 28 kDa; reduced (DTT)
# Sequence (Q07185 42-321): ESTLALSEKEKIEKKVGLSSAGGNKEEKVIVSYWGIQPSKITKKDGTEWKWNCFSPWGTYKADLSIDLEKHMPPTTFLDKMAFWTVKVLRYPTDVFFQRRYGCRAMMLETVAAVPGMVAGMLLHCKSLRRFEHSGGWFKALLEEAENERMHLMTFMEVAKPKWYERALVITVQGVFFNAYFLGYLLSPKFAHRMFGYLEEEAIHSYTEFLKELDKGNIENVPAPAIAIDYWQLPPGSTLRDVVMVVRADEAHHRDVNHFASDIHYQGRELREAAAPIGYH
# protocol.description: O2 consumption (Clark electrode), activation of AOX in inverted membrane vesicles
# reported.conditions: activator; 2.5 mM NADH, 5 mM DTT, 1 mM KCN, pH 7.0; discussion text b26 prints 6 μM; read-out: Present study / K1/2 PYR
value.kind: pEC50
Units for pEC50: none; it is -log10 of a concentration expressed in mol/L.

pEC50 recorded for this compound, CC(=O)C(=O)O [pyruvate] , is 5.40

Reference source for all entries: paper PMC8801435
